Items are presented alongside their recorded inhibition at 1 µM.
System: ERE
Test: Anti-estrogenic effect, MELN cellular lineage (MCF-7 with ERE-βGlob-Luc) activated by estradiol
Format: cell-based, human
Details: Homo sapiens; -6 log M (10^-6 M); 10^-9 M estradiol; read-out: Anti-oestrogenic effect, Inhibition (%)
Give the quantity in %, number only.

Guide cases for inhibition at 1 µM, answers given:
[
  {
    "compound": "CC1(C)CCC(C)(C)c2cc(/C=C3\\CCc4cc(C(=O)O)ccc43)ccc21 [CB78937]",
    "unit_symbol": "%",
    "inhibition at 1 µM": 4
  },
  {
    "compound": "Cc1cc2c(cc1/C=C1/CCc3cc(C(=O)O)ccc31)C(C)(C)CCC2(C)C [CB75403]",
    "unit_symbol": "%",
    "inhibition at 1 µM": 0
  },
  {
    "compound": "CC1(C)CCC(C)(C)c2cc(/C=C3/CCCc4cc(C(=O)O)ccc43)ccc21 [CB80830]",
    "unit_symbol": "%",
    "inhibition at 1 µM": 2
  }
]

Qu. Sample Cc1cc2c(cc1/C=C1/CCc3cc(-c4nnn[nH]4)ccc31)C(C)(C)CCC2(C)C [CB02981] — what was its inhibition at 1 µM?
Ans. 0

Qu. Next up: CC1Cc2cc(C(=O)O)ccc2/C1=C/c1ccc2c(c1)C(C)(C)CCC2(C)C (stereo not drawn) [CB52809]
Ans. 0

Qu. Cool, now Cc1cc2c(cc1/C=C1\CCc3cc(-c4nnn[nH]4)ccc31)C(C)(C)CCC2(C)C [CB23804]
Ans. 0

----------
System: RARE
Assay: HRLN transactivation (stably transfected HeLa, RARE3-tk-Luc, endogenic receptors)
Type: cell-based
Details: Homo sapiens, HeLa; concentrations from 1 nM to 1 μM; read-out: HRLN transactivation EC50
measurement_label: pEC50
Keep it numeric: pEC50 is minus log10 of the concentration in mol/L.

Qu. Under RARE: pEC50 value of CC1=C(/C=C/C(C)=C/C=C/C(C)=C/C(=O)O)C(C)(C)CCC1 [ttRA, all trans retinoic acid] ?
Ans. 8.60

----------
System: AP-1
Assay: Anti-AP-1 effect, MTLN cellular lineage (MCF-7 with (TRE)3-tk-Luc) activated by TPA
Assay type: cell-based, human
Conditions: -8 log M; 10^-7 M TPA; range of several experiments
molecules and their reported Anti-AP-1 effect, Inhibition (%)

[
  {
    "molecule": "C/C(=C\\c1ccc(C(=O)O)cc1)c1ccc2c(c1)C(C)(C)CCC2(C)C",
    "Anti-AP-1 effect, Inhibition (%)": "26-53%"
  },
  {
    "molecule": "CC1=C(/C=C/C(C)=C/C=C/C(C)=C/C(=O)O)C(C)(C)CCC1 [ttRA, all trans retinoic acid]",
    "Anti-AP-1 effect, Inhibition (%)": "22-33%"
  }
]

Qu. I am curious: what Anti-AP-1 effect, Inhibition (%) value has been reported for CC1(C)CCC(C)(C)c2cc(C(=O)Nc3ccc(C(=O)O)cc3)ccc21 ?
Ans. 40-46%

Qu. Same for CC1=C(/C=C/C(C)=C\C=C\C(C)=C\C(=O)O)C(C)(C)CCC1 [9-cis RA, reference compound]
Ans. 30-37%
